# Lookup of reported melting point keyed by entry

CN1CCN(c2cccc3c2OC(C(=O)Nc2ccc(N4CCOCC4)cc2)CC3=O)CC1 (single isomer, unassigned) [Example 79]; 216 °C (dec.)
CN1CCN(c2cc(F)cc3c(=O)cc(C(=O)Nc4ccc(N5CCN(C(=O)CCO)CC5)cc4)oc23)CC1; 195 to 199 °C
CN1CCN(c2cccc3c(=O)cc(C(=O)N(C)c4ccc(N5CCOCC5)cc4)oc23)CC1; 245 to 246.8 °C
CN1CCN(c2cccc3c2OC(C(=O)Nc2ccc(N4CCOCC4)cc2)CC3)CC1 (single isomer, unassigned; (+)) [Example 76]; 206 to 207 °C
CN1CCN(c2cccc3c2OC(C(=O)Nc2ccc(N4CCOCC4)cc2)CC3=O)CC1 (single isomer, unassigned) [Example 80]; 215 °C (dec.)

Per the records, this compound ( COc1cc(N2CCN(C)CC2)c2oc(C(=O)Nc3ccc(N4CCOCC4)cc3)cc(=O)c2c1 ) has melting point equal to 234 to 236 °C

Lab book: melting point of CN1CCN(c2cccc3c(=O)cc(-c4nc5ccc(N6CCOCC6)cc5o4)oc23)CC1 noted as 158.1 to 158.8 °C
